Settings: Crystal; DTA
Decision: Normal melting temperature >= 70 °C yields MET, all other cases yield NOT MET.

Some solved cases for reference:
[[record]]
compound = "O=[N+]([O-])c1ccccc1Nc1ccccc1 [2-nitrodiphenylamine]"
group = "MET"

[[record]]
compound = "CC(=O)OCCNc1ccc([N+](=O)[O-])cc1 [2-[(4-nitrophenyl)amino]ethanol 1-acetate]"
group = "MET"

[[record]]
compound = "CCN(C(=O)N(CC)c1ccccc1)c1ccccc1 [1,3-diethyl-1,3-diphenylurea]"
group = "MET"

[[record]]
compound = "COCCNc1ccc([N+](=O)[O-])cc1 [N-(2-methoxyethyl)-4-nitroaniline]"
group = "MET"


Now turn to the next compound.
Enquiry: Is Normal melting temperature for c1ccc(Nc2ccccc2)cc1 [diphenylamine] at or above 70 °C?
Return: NOT MET
